Data origin, for the record: patent EP4028131B1

assay: cell viability assay using tetrazolium salt (MTS); conditions: human
Observable: CC50 (µM)

In [3]: df
Out[3]:
                                   compound  observable  value_operator  recorded_measurement
0  COc1ccc(-c2c(C)nn3c(NCc4ccc(S(N)(=O)=O)cc4)nc(C)nc23)cc1OC        CC50               >                   500
1  Cc1cc(CCCOc2c(C)cc(-c3noc(C(F)(F)F)n3)cc2C)on1 [Pleconaril, reference compound]        CC50               =                   300
2  Cc1cc(CNc2cc(C)nc3c(-c4ccc5c(c4)c(C)nn5C)c(C)nn23)ccn1        CC50               =                    18
3  CCc1cc(CNc2cc(C)nc3c(-c4ccc5c(c4)c(C)nn5C)c(C)nn23)ccn1        CC50               =                   160
4  Cc1cc(NCc2ccncc2)n2nc(C)c(-c3ccc4c(c3)c(C)nn4C)c2n1        CC50               =                    40
5  COc1ccc(-c2c(C)nn3c(NCc4ccncc4)nc(C)nc23)cc1OC        CC50               =                    60
6  COc1ccc(-c2c(C)nn3c(NCc4cccc(S(C)(=O)=O)c4)cc(C)nc23)cc1OC        CC50               >                   500
7  COc1ccc(-c2c(C)nc3c(NCc4ccncc4)cc(C)nn23)cc1OC        CC50               =                    60
8  Cc1cc(NCc2ccncc2)c2nc(C)c(-c3ccc4c(c3)c(C)nn4C)n2n1        CC50               =                    18
